// provenance: PubChem BioAssay (NCI)

# MEASUREMENT_DESCRIPTION: NCI Yeast Anticancer Drug Screen. Data for the wt2 strain (AID 169);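 note: 0% = growth of vehicle-treated yeast cultures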
# RUN_PARAMETERS: S. cerevisiae wt2 strain growth inhibition; at 33.0 µM; hits give high values
# Method: Growth inhibition of yeast strains with defined genetic alterations is measured as a screen for potential anti-cancer activity. Selected strains with alterations in DNA damage repair or cell cycle control were exposed to compounds and growth inhibition was measured relative to vehicle treated controls. The strain used in this assay is wt2
About 79,000 compounds went through this panel and 15% of them were active in at least one assay; those are over-represented in the sample as a whole.
Label -1 if growth inhibition falls below 10%; label 1 in every other case.

[[record]]
compound = "Nc1ccccc1CC(O)C(=O)O (stereo unspecified)"
classification = 1

[[record]]
compound = "[O-][n+]1c2ccc(O)cc2nc2ccc(Br)cc21"
classification = 1

[[record]]
compound = "CC(C)/C(Cl)=N\\OC(=O)Nc1cccc(Cl)c1"
classification = -1

[[record]]
compound = "O=C1C=CC(=O)c2c(O)c(Nc3ccc(OC(F)(F)F)cc3)c(Cl)c(O)c21"
classification = 1

[[record]]
compound = "CCCCCCCCCCCCCCCCCCNC"
classification = -1

[[record]]
compound = "O=C(Nc1ccccc1)C(=O)C(C(=O)c1ccccc1)C(c1ccccc1)c1ccccc1 (stereo unspecified)"
classification = 1

